- tested.on: Ba/F3-TPM3-NTRK1 (Homo sapiens)
- Construct: the other entry of the earlier key: TPM3 (P06753, Tropomyosin alpha-3 chain)
- Sequence (P04629 510-796 limits assumed): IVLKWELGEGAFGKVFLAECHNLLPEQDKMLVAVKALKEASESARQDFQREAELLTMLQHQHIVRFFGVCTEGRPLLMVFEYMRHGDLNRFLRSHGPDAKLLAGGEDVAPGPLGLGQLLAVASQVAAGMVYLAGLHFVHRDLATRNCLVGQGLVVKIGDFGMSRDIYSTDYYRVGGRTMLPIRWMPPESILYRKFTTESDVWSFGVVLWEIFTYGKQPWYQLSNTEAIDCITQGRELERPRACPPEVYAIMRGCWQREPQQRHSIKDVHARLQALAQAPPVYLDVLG
- assay.summary: Ba/F3-TPM3-NTRK1 cells proliferation assay
- particulars: 72 h, CellTiter Glo
Record form. Attribute: pIC50. Fill in for each entry.
A value of pIC50 is the negative decimal logarithm of a concentration given in moles per litre.

Lab book: pIC50 of Fc1ccc(F)c([C@H]2CCCN2c2ccn3ncc(-c4nnc(C5CCNCC5)[nH]4)c3n2)c1 noted as 8.53

CC(C)(O)c1nnc(-c2cnn3ccc(N4CCC[C@@H]4c4cc(F)ccc4F)nc23)[nH]1 yielded pIC50 of 8.09

Quick note, pIC50 for N#Cc1cc2nc(-c3cnn4ccc(N5CCC[C@@H]5c5cc(F)ccc5F)nc34)[nH]c2cc1C#N landed at 8.66

The recorded pIC50 for OC1CC(c2nnc(-c3cnn4ccc(N5CCC[C@@H]5c5cc(F)ccc5F)nc34)[nH]2)C1 (stereo partly shown) is 8.41

* * *

For each record, write down the corresponding IC50.
- tested.on: TrkA kinase (Homo sapiens, UniProt P04629)
- Sequence (P04629 33-796): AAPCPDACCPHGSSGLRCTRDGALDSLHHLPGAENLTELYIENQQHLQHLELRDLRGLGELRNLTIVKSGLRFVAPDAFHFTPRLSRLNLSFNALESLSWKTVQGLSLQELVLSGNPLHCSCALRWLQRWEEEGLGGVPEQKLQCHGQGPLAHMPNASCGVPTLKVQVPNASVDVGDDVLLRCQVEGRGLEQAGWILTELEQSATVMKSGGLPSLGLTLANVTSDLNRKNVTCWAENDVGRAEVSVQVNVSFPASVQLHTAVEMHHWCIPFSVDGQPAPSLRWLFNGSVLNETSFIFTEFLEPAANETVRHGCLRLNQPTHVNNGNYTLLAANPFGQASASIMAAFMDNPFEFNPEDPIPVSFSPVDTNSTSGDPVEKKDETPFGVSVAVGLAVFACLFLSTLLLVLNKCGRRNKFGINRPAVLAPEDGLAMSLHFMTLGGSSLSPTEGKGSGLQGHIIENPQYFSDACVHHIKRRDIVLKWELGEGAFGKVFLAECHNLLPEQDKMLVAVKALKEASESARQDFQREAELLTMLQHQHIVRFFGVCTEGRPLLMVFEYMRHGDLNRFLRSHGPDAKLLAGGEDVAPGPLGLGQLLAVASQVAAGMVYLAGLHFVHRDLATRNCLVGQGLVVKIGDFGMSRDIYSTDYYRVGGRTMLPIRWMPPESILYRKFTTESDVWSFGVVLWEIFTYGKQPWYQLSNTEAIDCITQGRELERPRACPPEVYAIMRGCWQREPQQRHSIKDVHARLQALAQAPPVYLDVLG
- assay.summary: TrkA kinase assay (mobility shift assay)
- Assay type: biochemical
- particulars: numeric values; read-out: Trk A Kinase IC50

get_value(item= N#Cc1cc2nc(-c3cnn4ccc(N5CCC[C@@H]5c5cc(F)ccc5F)nc34)[nH]c2cc1C#N [Compound 148] , readout=IC50) returns 1.5 nM

Per the record, COc1cc2[nH]c(-c3cnn4ccc(N5CCC[C@@H]5c5cc(F)ccc5F)nc34)nc2cn1 [Compound 85] has IC50 of 0.31 nM

The reported IC50 of the molecule Fc1ccc(F)c([C@H]2CCCN2c2ccn3ncc(-c4nc5cnccc5o4)c3n2)c1 [Compound 73] was 0.59 nM

So, CCC(O)C(F)(F)c1nnc(-c2cnn3ccc(N4CCC[C@@H]4c4cc(F)ccc4F)nc23)[nH]1 (stereo partly shown) [Compound 46] ? Its IC50 was 2.02 nM

Note to self: IC50 recorded for Fc1ccc(F)c([C@H]2CCCN2c2ccn3ncc(-c4nc5cccc(OC(F)(F)F)c5[nH]4)c3n2)c1 [Compound 113] was 6.7 nM

Per the records, this molecule ( COC(=O)c1cc2[nH]c(-c3cnn4ccc(N5CCC[C@@H]5c5cc(F)ccc5F)nc34)nc2c(F)c1F [Compound 137] ) has IC50 equal to 2.65 nM

Per the record, CC(C)(CO)c1nnc(-c2cnn3ccc(N4CCC[C@@H]4c4cc(F)ccc4F)nc23)[nH]1 [Compound 33] has IC50 of 2.41 nM

* * *

- tested.on: TrkA kinase (Homo sapiens, UniProt P04629)
- assay.summary: TrkA kinase assay (mobility shift assay)
- Assay type: biochemical
- particulars: class symbols; read-out: Trk A Kinase IC50
observed.property: IC50

Case N#Cc1cccc(-c2nnc(-c3cnn4ccc(N5CCC[C@@H]5c5cc(F)ccc5F)nc34)[nH]2)c1 , TrkA kinase (Homo sapiens, UniProt P04629), IC50 recorded as ≤ 0.01 µM

Log: TrkA kinase (Homo sapiens, UniProt P04629), compound Fc1ccc(F)c([C@H]2CCCN2c2ccn3ncc(-c4nnc(-c5ccc(N6CCOCC6)cc5)[nH]4)c3n2)c1 , IC50 = ≤ 0.01 µM

The compound CCOC(=O)c1nnc(-c2cnn3ccc(N4CCC[C@@H]4c4cc(F)ccc4F)nc23)[nH]1 , tested on TrkA kinase (Homo sapiens, UniProt P04629), showed IC50 of > 0.05 µM

Lab note: compound CS(=O)(=O)c1cc2nc(-c3cnn4ccc(N5CCC[C@@H]5c5cc(F)ccc5F)nc34)[nH]c2cc1C(N)=O tested on TrkA kinase (Homo sapiens, UniProt P04629); recorded IC50 was ≤ 0.01 µM

Lab note: compound O=C1NCCOc2cc3[nH]c(-c4cnn5ccc(N6CCC[C@@H]6c6cc(F)ccc6F)nc45)nc3cc21 tested on TrkA kinase (Homo sapiens, UniProt P04629); recorded IC50 was ≤ 0.01 µM

// assay TrkA kinase (Homo sapiens, UniProt P04629), entry Fc1ccc(F)c([C@H]2CCCN2c2ccn3ncc(-c4nnc(C5CCOCC5)[nH]4)c3n2)c1 , IC50 value = 0.01 to 0.05 µM

Fc1ccc(F)c([C@H]2CCCN2c2ccn3ncc(-c4nc5ccc(F)nc5[nH]4)c3n2)c1 tested on TrkA kinase (Homo sapiens, UniProt P04629) gave IC50: ≤ 0.01 µM

Bench note, TrkA kinase (Homo sapiens, UniProt P04629): Fc1ccc(F)c([C@H]2CCCN2c2ccn3ncc(-c4nnc(-c5cnccn5)[nH]4)c3n2)c1 , IC50 reads 0.01 to 0.05 µM

Summary: N#Cc1cc2nc(-c3cnn4ccc(N5CCC[C@@H]5c5cc(F)ccc5F)nc34)oc2cc1OC(F)(F)F , TrkA kinase (Homo sapiens, UniProt P04629), IC50 = 0.01 to 0.05 µM

Form field, IC50 with TrkA kinase (Homo sapiens, UniProt P04629), item Cn1c(-c2ccnc(N3CCC(O)CC3)c2)nnc1-c1cnn2ccc(N3CCC[C@@H]3c3cc(F)ccc3F)nc12 : > 0.05 µM

The reported IC50 value, TrkA kinase (Homo sapiens, UniProt P04629), for N#Cc1cc2nc(-c3cnn4ccc(N5CCC[C@@H]5c5cc(F)ccc5F)nc34)[nH]c2cc1N1CC(O)C1 reads ≤ 0.01 µM

Measured on TrkA kinase (Homo sapiens, UniProt P04629), Fc1ccc(F)c([C@H]2CCCN2c2ccn3ncc(-c4nc5ccc(SC(F)(F)F)cc5[nH]4)c3n2)c1 has a documented IC50 of 0.01 to 0.05 µM

Entry N#Cc1cc2nc(-c3cnn4ccc(N5CCC[C@@H]5c5cc(F)ccc5F)nc34)[nH]c2cc1N1CCOCC1 , TrkA kinase (Homo sapiens, UniProt P04629) data, IC50 value: ≤ 0.01 µM

Here CC(O)c1cc2nc(-c3cnn4ccc(N5CCC[C@@H]5c5cc(F)ccc5F)nc34)oc2cc1F (some centres unmarked) was tested on TrkA kinase (Homo sapiens, UniProt P04629), and its IC50 came to ≤ 0.01 µM

* * *

Exercise: for every item that follows, state its recorded microsomal CLint at 2 μM.
- assay.summary: Liver microsomes metabolic stability assay, mouse
- Format: in vitro ADME
- particulars: male, mouse liver microsomes 0.5 mg/mL, 37° C.
The figure you give is taken to be in µL/min/mg; do not add the unit.

COc1cc2[nH]c(-c3cnn4ccc(N5CCC[C@@H]5c5cc(F)ccc5F)nc34)nc2cc1Cl [Compound 112] yielded microsomal CLint at 2 μM of 27.4

The value of microsomal CLint at 2 μM measured for the compound Fc1ccc(F)c([C@H]2CCCN2c2ccn3ncc(-c4nc5cc(Cl)c(OC(F)(F)F)cc5[nH]4)c3n2)c1 [Compound 92] turned out to be 5.6

The compound listed as Fc1ccc(F)c([C@H]2CCCN2c2ccn3ncc(-c4nc5cc6c(cc5[nH]4)OC(F)(F)O6)c3n2)c1 [Compound 79] has a reported microsomal CLint at 2 μM of 10

The reported microsomal CLint at 2 μM of the compound N#Cc1cc2nc(-c3cnn4ccc(N5CCC[C@@H]5c5cc(F)ccc5F)nc34)[nH]c2cc1C#N [Compound 148] was 14

Record N#Cc1cc2[nH]c(-c3cnn4ccc(N5CCC[C@@H]5c5cc(F)ccc5F)nc34)nc2cc1F [Compound 123] . Reported microsomal CLint at 2 μM: 39

Query Fc1ccc(F)c([C@H]2CCCN2c2ccn3ncc(-c4nc5ccc(OC(F)(F)F)cc5o4)c3n2)c1 [Compound 80] yields microsomal CLint at 2 μM of 8.4

* * *

So I've got a bunch of compounds here, and I need their pIC50 values.
- tested.on: TrkA kinase (Homo sapiens)
- assay.summary: TrkA kinase assay (mobility shift assay)
- Assay type: biochemical
- particulars: class symbols; read-out: Trk A Kinase IC50
pIC50: −log10 of the molar value.

Memo: OC1CC[C@H](c2nnc(-c3cnn4ccc(N5CCC[C@@H]5c5cc(F)ccc5F)nc34)[nH]2)C1 (stereo partly shown) , reported pIC50: ≥ 8.00

Reported pIC50 for N#Cc1cc2nc(-c3cnn4ccc(N5CCC[C@@H]5c5cc(F)ccc5F)nc34)[nH]c2cc1N1CC[C@H](O)C1 was ≥ 8.00

Measured pIC50 of Fc1ccc(F)c([C@H]2CCCN2c2ccn3ncc(-c4nc5cnc(N6CCOCC6)cc5[nH]4)c3n2)c1 : < 7.30

Recorded result, Oc1ccc2cc(-c3cnn4ccc(N5CCC[C@@H]5c5cc(F)ccc5F)nc34)[nH]c2c1 , pIC50: 7.30 to 8.00

Record Fc1ccc(F)c([C@H]2CCCN2c2ccn3ncc(-c4nc5cc6c(cc5o4)OCO6)c3n2)c1 , field pIC50: 7.30 to 8.00

// pIC50 lookup, compound = CSc1cc2nc(-c3cnn4ccc(N5CCC[C@@H]5c5cc(F)ccc5F)nc34)[nH]c2cc1C#N , result: ≥ 8.00

The compound Fc1ccc(F)c([C@H]2CCCN2c2ccn3ncc(-c4nc5ccc(N6CCN7CCC[C@@H]7C6)cc5[nH]4)c3n2)c1 showed pIC50 equal to < 7.30
